- SYSTEM UNDER TEST: human CB1 receptor (Homo sapiens, UniProt P21554)
- Sequence (P21554 whole entry): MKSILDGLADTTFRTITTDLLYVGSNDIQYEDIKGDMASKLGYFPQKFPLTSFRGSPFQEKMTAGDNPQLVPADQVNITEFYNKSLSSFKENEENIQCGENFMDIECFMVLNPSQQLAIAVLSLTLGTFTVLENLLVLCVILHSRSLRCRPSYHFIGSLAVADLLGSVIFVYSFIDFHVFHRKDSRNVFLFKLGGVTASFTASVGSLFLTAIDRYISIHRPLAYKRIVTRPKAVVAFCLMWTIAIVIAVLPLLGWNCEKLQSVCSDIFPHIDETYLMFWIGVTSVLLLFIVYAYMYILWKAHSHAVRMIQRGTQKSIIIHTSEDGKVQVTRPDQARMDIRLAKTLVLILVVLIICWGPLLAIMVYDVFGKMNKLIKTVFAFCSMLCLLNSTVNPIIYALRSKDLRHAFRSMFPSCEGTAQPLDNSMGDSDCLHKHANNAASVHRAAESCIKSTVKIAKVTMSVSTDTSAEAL
- ASSAY PROTOCOL: biochemical
- CONDITION DESCRIPTION: CHO-K1 membranes, WIN 55,212-2 (3 μM) as stimulating ligand; read-out: CB1 inhibition pIC50 (converted)
READOUT NAME: log10 of IC50 (log10 of the value in µM)

[[record]]
molecule = "COc1ccccc1C(CCNC(C)c1ccc(Cl)cc1)c1ccc(OC(C)C)cc1 (centres unmarked)"
reading = 0.57

[[record]]
molecule = "COc1ccc([C@@H](CC(=O)NCc2cccc3[nH]ccc23)c2cc3c(cc2O)OCO3)cc1"
reading = 1.52

[[record]]
molecule = "COc1cccc2c1ccn2CCNC(=O)[C@H](Cc1cn(C)c2ccccc12)NC(=O)OC(C)(C)C"
reading = 0.27

[[record]]
molecule = "CC(C)OC(=O)CCC/C=C\\C[C@@H]1[C@@H](/C=C/[C@@H](O)COc2cccc(C(F)(F)F)c2)[C@H](O)C[C@@H]1O"
reading = 2.36

[[record]]
molecule = "COc1cc(-c2c3cn[nH]c3nc3c2oc2c(O)c(O)ccc23)ccc1OCc1ccc(C(C)C)cc1"
reading = 0.32

